K0.5-mut/K0.5-wt by entry:
target: plasma purified human antithrombin III (AT-III), as complex with unfractionated heparin; experiment: ratio of K0.5 (lower limit) to Catalyst Biosciences WT FIXa, AT-III/UFH inhibition
The answer should be a number; do not append a unit.

Observe how each entry below is paired with its result.
* FIXa-Y155F/K247N/N249S/R318Y/R338E/R403E/E410N (protein) chain 1: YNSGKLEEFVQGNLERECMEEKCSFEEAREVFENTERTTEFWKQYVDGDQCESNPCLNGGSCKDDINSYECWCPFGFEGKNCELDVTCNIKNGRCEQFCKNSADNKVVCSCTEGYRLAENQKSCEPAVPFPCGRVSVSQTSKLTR chain 2: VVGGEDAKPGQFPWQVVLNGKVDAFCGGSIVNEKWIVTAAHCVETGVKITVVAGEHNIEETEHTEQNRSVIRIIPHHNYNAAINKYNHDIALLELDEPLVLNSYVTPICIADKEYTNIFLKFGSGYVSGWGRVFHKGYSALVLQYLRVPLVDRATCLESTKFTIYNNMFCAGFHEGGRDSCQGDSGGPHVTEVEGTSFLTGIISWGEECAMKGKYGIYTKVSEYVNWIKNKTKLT | 517
* FIXa-K228N/K247N/N249S/R318Y/R338E/R403E/E410N (protein) chain 1: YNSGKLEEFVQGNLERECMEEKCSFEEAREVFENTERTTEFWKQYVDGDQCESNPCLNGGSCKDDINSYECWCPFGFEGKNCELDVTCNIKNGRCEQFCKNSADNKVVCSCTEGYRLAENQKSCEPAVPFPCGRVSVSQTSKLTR chain 2: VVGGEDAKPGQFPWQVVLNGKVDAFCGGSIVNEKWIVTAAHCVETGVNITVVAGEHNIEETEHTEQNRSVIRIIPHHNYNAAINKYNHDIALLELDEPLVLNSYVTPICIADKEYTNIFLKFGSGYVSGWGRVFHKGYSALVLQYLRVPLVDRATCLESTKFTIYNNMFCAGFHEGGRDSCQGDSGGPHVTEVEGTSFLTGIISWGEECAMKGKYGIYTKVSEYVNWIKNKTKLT | 517
* FIXa-I251S/R318Y/R338E/R403E/E410N (protein) chain 1: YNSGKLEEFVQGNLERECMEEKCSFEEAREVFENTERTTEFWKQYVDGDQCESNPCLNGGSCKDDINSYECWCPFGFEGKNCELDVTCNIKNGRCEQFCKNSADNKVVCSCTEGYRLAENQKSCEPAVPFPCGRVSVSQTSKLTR chain 2: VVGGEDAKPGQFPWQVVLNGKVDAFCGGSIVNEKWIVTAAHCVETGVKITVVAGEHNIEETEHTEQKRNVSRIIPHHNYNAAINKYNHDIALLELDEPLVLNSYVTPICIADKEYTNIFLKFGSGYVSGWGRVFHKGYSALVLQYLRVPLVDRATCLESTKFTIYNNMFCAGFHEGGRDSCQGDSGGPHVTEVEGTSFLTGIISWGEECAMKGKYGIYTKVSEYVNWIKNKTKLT | 517

--- query ---
Fill in K0.5-mut/K0.5-wt for record FIXa-Y155F/I251S/R318Y/R338E/R403E/E410N (protein) chain 1: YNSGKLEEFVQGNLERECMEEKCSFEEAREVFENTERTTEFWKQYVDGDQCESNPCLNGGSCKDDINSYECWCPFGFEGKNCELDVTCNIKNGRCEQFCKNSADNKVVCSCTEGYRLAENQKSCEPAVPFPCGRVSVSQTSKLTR chain 2: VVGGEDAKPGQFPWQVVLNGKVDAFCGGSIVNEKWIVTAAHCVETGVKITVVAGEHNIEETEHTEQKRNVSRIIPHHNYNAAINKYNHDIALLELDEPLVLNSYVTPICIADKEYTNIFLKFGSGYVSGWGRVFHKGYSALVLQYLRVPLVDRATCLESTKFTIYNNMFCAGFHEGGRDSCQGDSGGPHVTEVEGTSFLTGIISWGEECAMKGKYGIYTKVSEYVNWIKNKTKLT
517

Recorded values, source patent US20210238260.
